biological target: orexin-1 (Homo sapiens (Human)); assay: Intracellular calcium measurement (FLIPR), CHO cells expressing human orexin-1 receptor, 3 nM orexin-A; assay type: cell-based; conditions: CHO cells expressing human orexin-1 receptor, FLIPR, 3 nM orexin-A; geometric mean if determined several times; read-out: IC50 OX1
Sequence (O43613 whole entry): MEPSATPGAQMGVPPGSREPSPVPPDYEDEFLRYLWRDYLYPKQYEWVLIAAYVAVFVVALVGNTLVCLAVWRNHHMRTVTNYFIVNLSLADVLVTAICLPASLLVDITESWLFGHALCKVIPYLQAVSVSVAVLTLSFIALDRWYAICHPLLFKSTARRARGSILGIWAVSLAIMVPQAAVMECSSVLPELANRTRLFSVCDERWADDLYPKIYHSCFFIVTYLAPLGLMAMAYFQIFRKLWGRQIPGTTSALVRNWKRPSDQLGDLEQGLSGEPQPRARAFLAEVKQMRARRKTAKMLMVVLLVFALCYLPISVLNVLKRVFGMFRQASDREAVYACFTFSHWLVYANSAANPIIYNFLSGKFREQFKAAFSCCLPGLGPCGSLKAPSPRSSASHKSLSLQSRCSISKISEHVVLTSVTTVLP
Each entry below carries its recorded IC50.
Give just the number in nM; leave the unit off.

Study these solved cases before continuing.
{"molecule": "N#Cc1ccc(-n2nccn2)c(C(=O)N2CCC[C@H]2c2nc(-c3ccccc3OC(F)(F)F)no2)c1 [compound 275]", "data.value": 210}
{"molecule": "COc1cc(C(=O)N2CCC[C@H]2c2nc(-c3cccc(Cl)c3C)no2)c(-n2nccn2)cc1Cl [compound 280]", "data.value": 54}

Item CCOc1ncccc1-c1nc([C@@H]2CCCN2C(=O)c2cc(C)ccc2-n2nccn2)no1 [compound 330] has what recorded IC50? 5

Item COc1c(F)cccc1-c1noc([C@@H]2CCCN2C(=O)c2cc(C)c(C)cc2-n2nccn2)n1 [compound 196] has what recorded IC50? 10
